- SUBJECT_OF_TEST: Peroxisome proliferator-activated receptor alpha (Homo sapiens)
- Sequence (Q07869 whole entry, the tested form may be a part): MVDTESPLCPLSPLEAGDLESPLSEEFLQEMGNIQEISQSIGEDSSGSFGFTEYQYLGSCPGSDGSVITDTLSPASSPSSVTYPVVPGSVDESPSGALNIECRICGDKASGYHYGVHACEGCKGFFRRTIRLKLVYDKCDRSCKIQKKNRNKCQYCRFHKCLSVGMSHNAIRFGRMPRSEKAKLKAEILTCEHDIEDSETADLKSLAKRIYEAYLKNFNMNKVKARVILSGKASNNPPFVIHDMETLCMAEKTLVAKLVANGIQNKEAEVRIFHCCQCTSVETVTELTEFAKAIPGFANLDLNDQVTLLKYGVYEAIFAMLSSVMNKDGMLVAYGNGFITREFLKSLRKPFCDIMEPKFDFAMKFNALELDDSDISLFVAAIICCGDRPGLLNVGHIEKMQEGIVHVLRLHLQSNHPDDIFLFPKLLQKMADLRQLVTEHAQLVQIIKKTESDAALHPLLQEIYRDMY
- PROCEDURE_TEXT: Transactivation of human GAL4-fused PPARalpha ligand binding domain transfected in HEK293 cells after 18 hrs by dual luciferase reporter gene assay
- Assay type: cell-based
- CONDITION_CONTEXT: read-out: EC50
pEC50: −log10 of the molar value.
Decide by pEC50: equal to or exceeding 5 means condition met, less means condition not met.

1) CC(C)(Oc1ccc(COc2ccc(/N=N/c3ccccc3)cc2)cc1)C(=O)O; condition met
2) CC(C)(Oc1ccc(CCOc2nc3ccccc3s2)cc1)C(=O)O; condition not met
3) CC(C)(Oc1ccc(CCCOc2ccc(/N=N/c3ccccc3)cc2)cc1)C(=O)O; condition not met
4) CC(C)(Oc1ccc(CCCO)cc1)C(=O)O; condition not met
5) CC(C)(Oc1ccc(CCO)cc1)C(=O)O; condition not met

Decide: is the reported value of pEC50 for CC(C)(Oc1ccc(COc2nc3ccccc3s2)cc1)C(=O)O equal to or greater than 5?
condition not met

And what about the compound CC(C)(Oc1ccc(CCOc2ccc(/N=N/c3ccccc3)cc2)cc1)C(=O)O ?
condition met

What do you get for CC(C)(Oc1ccc(CCCOc2nc3ccccc3s2)cc1)C(=O)O ?
condition not met

Can you check CC(C)(Oc1ccc(CO)cc1)C(=O)O next?
condition not met

Similarly, CC(C)(Oc1ccc(CCOc2ccc(C(=O)/C=C/c3ccccc3)cc2)cc1)C(=O)O ?
condition not met

Try CC(C)(Oc1ccc(COc2ccc(/C=C/c3ccccc3)cc2)cc1)C(=O)O next.
condition not met

###

- SUBJECT_OF_TEST: Peroxisome proliferator-activated receptor alpha (Homo sapiens)
- PROCEDURE_TEXT: Transactivation of human GAL4-fused PPARalpha ligand binding domain transfected in HEK293 cells at 150 uM after 18 hrs by dual luciferase reporter gene assay relative to clofibric acid
- Assay type: cell-based
Reported values of %max for individual entries

1. CC(C)(Oc1ccc(CCCOc2ccc(/N=N/c3ccccc3)cc2)cc1)C(=O)O; 81%
2. CC(C)(Oc1ccc(CO)cc1)C(=O)O; 119%
3. CC(C)(Oc1ccc(COc2ccc(/N=N/c3ccccc3)cc2)cc1)C(=O)O; 350%
4. CC(C)(Oc1ccc(COc2nc3ccccc3s2)cc1)C(=O)O; 125%
5. CC(C)(Oc1ccc(CCCOc2nc3ccccc3s2)cc1)C(=O)O; 100%

Given the entry CC(C)(Oc1ccc(CCOc2ccc(C(=O)/C=C/c3ccccc3)cc2)cc1)C(=O)O , report its measured %max.
118%

Similarly, CC(C)(Oc1ccc(CCOc2ccc(/C=C/c3ccccc3)cc2)cc1)C(=O)O ?
81%

Check CC(C)(Oc1ccc(COc2ccc(/C=C/c3ccccc3)cc2)cc1)C(=O)O too.
156%

###

- SUBJECT_OF_TEST: Peroxisome proliferator-activated receptor gamma (Homo sapiens, UniProt P37231)
- Sequence (P37231 whole entry, the tested form may be a part): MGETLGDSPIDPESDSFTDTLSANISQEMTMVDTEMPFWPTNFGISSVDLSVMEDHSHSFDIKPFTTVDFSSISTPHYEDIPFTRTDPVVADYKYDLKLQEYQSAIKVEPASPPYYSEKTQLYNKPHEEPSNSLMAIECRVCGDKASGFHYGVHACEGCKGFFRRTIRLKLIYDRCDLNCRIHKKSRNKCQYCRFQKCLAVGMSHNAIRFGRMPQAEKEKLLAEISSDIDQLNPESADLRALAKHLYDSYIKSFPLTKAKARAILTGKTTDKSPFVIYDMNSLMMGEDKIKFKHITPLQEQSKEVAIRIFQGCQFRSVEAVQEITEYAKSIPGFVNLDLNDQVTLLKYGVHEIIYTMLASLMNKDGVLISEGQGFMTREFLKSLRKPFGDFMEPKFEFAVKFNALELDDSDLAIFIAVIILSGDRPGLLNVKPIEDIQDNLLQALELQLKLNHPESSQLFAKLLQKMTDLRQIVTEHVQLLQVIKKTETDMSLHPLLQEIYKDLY
- PROCEDURE_TEXT: Transactivation of human GAL4-fused PPARgamma ligand binding domain transfected in HEK293 cells after 18 hrs by dual luciferase reporter gene assay
- Type: cell-based
- CONDITION_CONTEXT: read-out: EC50
Rule for this label: Met means EC50 is less than 6 µM; Not met means EC50 is at least 6 µM.

1. CC(C)(Oc1ccc(CCOc2nc3ccccc3s2)cc1)C(=O)O; Not met
2. CC(C)(Oc1ccc(CCOc2ccc(C(=O)c3ccccc3)cc2)cc1)C(=O)O; Not met
3. CC(C)(Oc1ccc(COc2ccc(Oc3ccccc3)cc2)cc1)C(=O)O; Met
4. CC(C)(Oc1ccc(CCCOc2ccc(Oc3ccccc3)cc2)cc1)C(=O)O; Not met
5. CC(C)(Oc1ccc(CCCOc2ccc(/N=N/c3ccccc3)cc2)cc1)C(=O)O; Not met

# check: EC50 < 6 µM for CC(C)(Oc1ccc(COc2ccc(C(=O)c3ccccc3)cc2)cc1)C(=O)O
Met

Try the compound CC(C)(Oc1ccc(CCCOc2nc3ccccc3s2)cc1)C(=O)O
Not met

Query CC(C)(Oc1ccc(CCOc2ccc(/N=N/c3ccccc3)cc2)cc1)C(=O)O next
Met

Values were extracted from ChEMBL document CHEMBL2203159.
